- Test Details: Chemical antioxidant assay (ABTS oxidation by metmyoglobin/hydrogen peroxide)
- Setup Conditions: room temperature, absorbance at 750 nm in first 5 min; read-out: AOC50 (half maximal anti-oxidative concentration)

Compound: O=C(O)/C=C/c1ccc(O)c(O)c1 [CA, caffeic acid]
EC50 [µM]: 16.8
